Biological target: M4 muscarinic receptor (Homo sapiens, UniProt P08173)
Sequence (P08173 whole entry): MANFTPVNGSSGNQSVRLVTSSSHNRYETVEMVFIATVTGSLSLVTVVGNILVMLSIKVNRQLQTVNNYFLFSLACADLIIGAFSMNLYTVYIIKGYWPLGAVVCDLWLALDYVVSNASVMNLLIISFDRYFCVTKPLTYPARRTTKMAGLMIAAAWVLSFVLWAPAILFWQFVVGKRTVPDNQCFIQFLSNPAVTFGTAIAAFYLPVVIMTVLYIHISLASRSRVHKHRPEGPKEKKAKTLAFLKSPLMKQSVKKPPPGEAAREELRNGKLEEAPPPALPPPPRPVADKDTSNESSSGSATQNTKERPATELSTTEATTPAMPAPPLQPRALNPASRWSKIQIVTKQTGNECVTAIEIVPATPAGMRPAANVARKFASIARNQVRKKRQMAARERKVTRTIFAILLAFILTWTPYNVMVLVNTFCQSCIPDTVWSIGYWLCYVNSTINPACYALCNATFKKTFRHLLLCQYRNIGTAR
Experiment: inhibition of forskolin-stimulated cAMP, M4 CHO cells (M4Gi)
Assay type: cell-based
Parameters: host or cells: CHO cells, stably transfected
Conditions: M4Gi (↓cAMP), Table 8
READOUT: τ
Give bare numbers.

MOLECULE	TARGET SYSTEM	MEAS VALUE
C[N+](C)(C)CCOC(N)=O [carbachol, reference compound]	M4 muscarinic receptor (Homo sapiens, UniProt P08173)	1.4
O=C1CCCN1CC#CCN1CCCC1 [oxotremorine, reference compound]	M4 muscarinic receptor (Homo sapiens, UniProt P08173)	1.2
C[N+]1(Cc2cccs2)CC=CCC1.[I-] (stereo not shown)	M4 muscarinic receptor (Homo sapiens, UniProt P08173)	0.78

For the next question, use this molecule.
Sure, the documented τ for `C1=CCN(Cc2cccs2)CC1.Cl` is 0.39
